experimental-system: CCR1 (Homo sapiens)
protocol-summary: Calcium flux in response to MIP-1 alpha in CCR1-transfected cells, Method B (Calcium 4 dye, […] FDSS6000)
Type: cell-based
recorded-conditions: cells stably expressing recombinant CCR1 and G-alpha-16; MIP-1 alpha at EC80; 30 minutes at 37 C then 30 minutes at room temperature
Procedure: Compounds are assessed for the ability to block the interaction of CCR1 and its ligand in a functional cellular assay measuring calcium flux in response to MIP-1α in CCR1-transfected cells. Method B: Non-adherent cells purchased from Chemicon Corporation (HTS005C), stably expressing recombinant CCR1 and G-alpha-16 are grown in RPMI 1640 medium (Mediatech 10-080-CM) supplemented with 10% FBS, 0.4 mg/mL Geneticin and penicillin/streptomycin. […] Data are analyzed using Activity Base software.
metric-name: IC50 (µM)

[I] CC[C@H](NC(=O)c1cccc2c1cnn2-c1ccc(F)cc1)c1ccc(S(C)(=O)=O)nc1
[II] CC[C@H](NC(=O)c1cc(Br)cc2c1cnn2-c1ccc(F)cc1)c1ccc(S(C)(=O)=O)nc1
# compare IC50 for I vs II ; return the one with the smaller value Record your answer as the label of the chosen record.
I
(I: 0.002 µM, II: 0.023 µM)

---

experimental-system: UniProtKB P32246
protocol-summary: Calcium flux in response to MIP-1 alpha in CCR1-transfected cells, Method A (Fluo-4 NW, FLIPR TETRA)
Assay type: cell-based
recorded-conditions: cells stably expressing recombinant CCR1 and G-alpha-16; MIP-1 alpha at EC80; 1 hour incubation at room temperature
metric-name: IC50 (nM)

Please give the documented IC50 of CC(NC(=O)c1cccc2c1cnn2-c1ccc(F)cc1)c1cccc(C(F)(F)F)c1 (stereo not drawn)
14

[I] COCCNS(=O)(=O)c1ccc(CNC(=O)c2cccc3c2cnn3-c2ccc(F)cc2)cc1
[II] CN1CCN(S(=O)(=O)c2ccc(CNC(=O)c3cc(C#N)cc4c3cnn4-c3ccc(F)cc3)cc2)CC1
Between item I and item II , which reported IC50 is smaller? // return label of chosen record
II
(II: 1.5 nM, I: 10 nM)

[P] COc1cc(CNC(=O)c2cccc3c2cnn3-c2ccc(F)cc2)cc(OC)c1
[Q] CNS(=O)(=O)c1ccc(CNC(=O)c2cccc3c2cnn3-c2ccc(F)cc2)c(F)c1
[R] CC(=O)NCCNS(=O)(=O)c1ccc(CNC(=O)c2cccc3c2cnn3-c2ccc(F)cc2)cc1
[S] CC(C)NS(=O)(=O)Cc1ccc(CNC(=O)c2cccc3c2cnn3-c2ccc(F)cc2)cc1
[T] CS(=O)(=O)c1cccc(CNC(=O)c2cc(C#N)cc3c2cnn3-c2ccc(F)cc2)c1
Rank descending by IC50. Please express your ranking as an ordered list of the labels.
R, S, P, Q, T
(R: 110 nM, S: 55 nM, P: 25 nM, Q: 5.4 nM, T: 2 nM)

[1] CN(C)C1CCN(S(=O)(=O)c2ccc(CNC(=O)c3cccc4c3cnn4-c3ccc(F)cc3)cc2)CC1
[2] CN1CCC(N(C)S(=O)(=O)c2ccc(CNC(=O)c3cc(C#N)cc4c3cnn4-c3ccc(F)cc3)cc2)CC1
Compare 1 and 2 by numeric IC50 and name the larger one. Your answer should be the label attached to the chosen record.
1
(1: 23 nM, 2: 5.1 nM)

---

experimental-system: CCR1 (Homo sapiens, UniProt P32246)
Sequence (P32246 whole entry): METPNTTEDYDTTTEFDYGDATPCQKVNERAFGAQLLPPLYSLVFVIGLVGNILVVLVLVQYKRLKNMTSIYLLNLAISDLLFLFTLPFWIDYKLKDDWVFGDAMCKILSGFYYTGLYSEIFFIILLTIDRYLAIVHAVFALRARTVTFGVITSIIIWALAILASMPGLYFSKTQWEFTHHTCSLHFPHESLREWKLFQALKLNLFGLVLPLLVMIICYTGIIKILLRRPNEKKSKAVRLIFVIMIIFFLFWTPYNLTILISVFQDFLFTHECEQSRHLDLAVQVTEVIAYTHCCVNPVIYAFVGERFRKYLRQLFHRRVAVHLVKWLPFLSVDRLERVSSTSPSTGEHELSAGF
protocol-summary: Calcium flux in response to MIP-1 alpha in CCR1-transfected cells, Method A (Fluo-4 NW, FLIPR TETRA)
Type: cell-based
recorded-conditions: cells stably expressing recombinant CCR1 and G-alpha-16; MIP-1 alpha at EC80; 1 hour incubation at room temperature
metric-name: IC50 (µM)

Consider the worked cases shown below.
Output measured IC50 for this item: O=C(NCc1ccc(S(=O)(=O)NCCO)cc1)c1cccc2c1cnn2-c1ccc(F)cc1
0.0092

Tell me measured IC50 for CS(=O)(=O)c1ccc(CNC(=O)c2cccc3c2cnn3-c2ccc(F)cc2)c(Cl)c1 please.
0.0067

Return IC50 (reported value) for this molecule: O=C(NCc1ccc(S(=O)(=O)NC2CCOCC2)cc1)c1cccc2c1cnn2-c1ccc(F)cc1
0.02

[A] CN1CCC(NS(=O)(=O)c2ccc(CNC(=O)c3cc(C#N)cc4c3cnn4-c3ccc(F)cc3)cc2)CC1
[B] CNS(=O)(=O)c1ccc(CNC(=O)c2cc(S(C)(=O)=O)cc3c2cnn3-c2ccc(F)cc2)cc1
[C] O=C(NCc1cccc(Br)c1)c1cccc2c1cnn2-c1ccc(F)cc1
[D] CS(=O)(=O)Nc1ccc(CNC(=O)c2cc(C#N)cc3c2cnn3-c2ccc(F)cc2)cn1
List the 4 entries from lowest IC50 to highest IC50 value. Answer by naming the labels in the order asked.
D, A, B, C
(D: 0.0044 µM, A: 0.018 µM, B: 0.028 µM, C: 0.076 µM)
